Measurement notes: self-splicing fitness, log relative to wild type (ln ratio); higher = more splicing; Tetrahymena group I intron in knt gene, E. coli kanamycin selection, DiMSum; sequences stand for … in CUCUCU…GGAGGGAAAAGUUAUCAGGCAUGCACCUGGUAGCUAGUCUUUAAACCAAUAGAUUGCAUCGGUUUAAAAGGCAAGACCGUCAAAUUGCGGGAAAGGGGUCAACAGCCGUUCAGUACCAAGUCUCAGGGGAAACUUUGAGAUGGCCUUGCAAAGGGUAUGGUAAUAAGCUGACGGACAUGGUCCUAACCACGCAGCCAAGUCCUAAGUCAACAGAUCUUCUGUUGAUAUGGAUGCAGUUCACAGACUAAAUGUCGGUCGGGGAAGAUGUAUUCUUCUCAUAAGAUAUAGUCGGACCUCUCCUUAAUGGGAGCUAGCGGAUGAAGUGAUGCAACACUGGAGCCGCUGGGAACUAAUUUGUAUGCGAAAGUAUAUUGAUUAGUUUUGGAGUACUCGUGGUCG;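 further: selection with 25 µg/mL kanamycin versus none on LB agar overnight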
Test parameters: 37 °C

{"Sequence string": "ACGCAGCAAUAUUACGCGUA", "self-splicing fitness (ln)": -2.1}
{"Sequence string": "AGUCAGCAAUAUUACGUUAC", "self-splicing fitness (ln)": -2.36}
{"Sequence string": "UAUAAGCAAUAUUACGGCCG", "self-splicing fitness (ln)": 0.0314}
{"Sequence string": "CAACAGCAAUAUUACGCCUG", "self-splicing fitness (ln)": -0.914}
{"Sequence string": "AAAAAGCAAUAUUACGCUCC", "self-splicing fitness (ln)": -0.319}
{"Sequence string": "GUUAAGCAAUAUUACGUGAA", "self-splicing fitness (ln)": -1.47}
{"Sequence string": "GUAUAGCAAUAUUACGAAUG", "self-splicing fitness (ln)": -2.32}
{"Sequence string": "CCUUAGCAAUAUUACGUGGC", "self-splicing fitness (ln)": -2.88}
{"Sequence string": "AUUAAGCAAUAUUACGCCGC", "self-splicing fitness (ln)": -2.04}
{"Sequence string": "CCUAAGCAAUAUUACGAUUA", "self-splicing fitness (ln)": -2.62}
{"Sequence string": "UAUGAGCAAUAUUACGUAUU", "self-splicing fitness (ln)": -3.61}
{"Sequence string": "AGACAGCAAUAUUACGGUAG", "self-splicing fitness (ln)": -0.604}
{"Sequence string": "GGCCAGCAAUAUUACGCAGU", "self-splicing fitness (ln)": -1.86}
{"Sequence string": "GUAGAGCAAUAUUACGGCUG", "self-splicing fitness (ln)": -0.584}
{"Sequence string": "GCCCAGCAAUAUUACGUGAU", "self-splicing fitness (ln)": -0.00599}
